tested on: MV-4-11 (human, Acute Myeloid Leukemia cell line) cells; test: Cell growth inhibition assay, GI50 of MV-4-11; format: cell-based; conditions: Homo sapiens, MV4-11, 72 h, MV-4-11 cells
quantity_name: GI50 (nM)
Give the number; nM is assumed, so skip it.

Can you share its GI50? I mean this molecule: "C=CCN1CC(=O)N2[C@@H](Cc3ccc(O)cc3)C(=O)N(Cc3cccc4c(C(=O)Nc5ccc(N6CCCCC6)nc5)cn(C)c34)C[C@@H]2N1C(=O)NCc1ccccc1"
1.4

Subsequent entry: C=CCN1CC(=O)N2C(Cc3ccc(O)cc3)C(=O)N(Cc3cccc4c(C(=O)Nc5ccc(N6CCC(N7CCCCC7)CC6)nc5)cn(C)c34)CC2N1C(=O)NCc1ccccc1 (stereo not drawn)
1.3

Subsequent entry: "C=CCN1CC(=O)N2[C@@H](Cc3ccc(O)cc3)C(=O)N(Cc3cccc4c(-c5ccc(NC(=O)N6CCOCC6)nc5)cn(C)c34)C[C@@H]2N1C(=O)NCc1ccccc1"
1.2
